B1: KRT15 (parent)
chain: SNFHINVEESVDGQVVSSHKREI

- Variants of: B1
- protocol notes: protein stability index of a GFP-peptide fusion (GPS, HEK-293T) (PSI 1-6); higher = more stable;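 further: lentivirally expressed fusions sorted by FACS into six bins by GFP to DsRed ratio, PSI derived from sequencing read proportions per bin multiplied by bin number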
- recorded conditions: c terminus: native
Label rule, in plain words: protein stability index of 2 and up is Y, under 2 is N.

[
  {
    "changes": "E8T",
    "label class": "N"
  },
  {
    "changes": "N6G",
    "label class": "Y"
  },
  {
    "changes": "S18E",
    "label class": "Y"
  },
  {
    "changes": "V7T",
    "label class": "Y"
  },
  {
    "changes": "V7S",
    "label class": "Y"
  },
  {
    "changes": "V16L",
    "label class": "Y"
  },
  {
    "changes": "H4F",
    "label class": "N"
  },
  {
    "changes": "H19Q",
    "label class": "Y"
  },
  {
    "changes": "V11P",
    "label class": "Y"
  },
  {
    "changes": "R21Y",
    "label class": "Y"
  },
  {
    "changes": "F3Y",
    "label class": "N"
  },
  {
    "changes": "E8C",
    "label class": "Y"
  },
  {
    "changes": "E22L",
    "label class": "Y"
  }
]
